The origin of these recorded values is paper PMC7244319.

- assay-system: GST-LysRS (human) (Homo sapiens, UniProt Q15046 1-597)
- Sequence (Q15046 whole entry): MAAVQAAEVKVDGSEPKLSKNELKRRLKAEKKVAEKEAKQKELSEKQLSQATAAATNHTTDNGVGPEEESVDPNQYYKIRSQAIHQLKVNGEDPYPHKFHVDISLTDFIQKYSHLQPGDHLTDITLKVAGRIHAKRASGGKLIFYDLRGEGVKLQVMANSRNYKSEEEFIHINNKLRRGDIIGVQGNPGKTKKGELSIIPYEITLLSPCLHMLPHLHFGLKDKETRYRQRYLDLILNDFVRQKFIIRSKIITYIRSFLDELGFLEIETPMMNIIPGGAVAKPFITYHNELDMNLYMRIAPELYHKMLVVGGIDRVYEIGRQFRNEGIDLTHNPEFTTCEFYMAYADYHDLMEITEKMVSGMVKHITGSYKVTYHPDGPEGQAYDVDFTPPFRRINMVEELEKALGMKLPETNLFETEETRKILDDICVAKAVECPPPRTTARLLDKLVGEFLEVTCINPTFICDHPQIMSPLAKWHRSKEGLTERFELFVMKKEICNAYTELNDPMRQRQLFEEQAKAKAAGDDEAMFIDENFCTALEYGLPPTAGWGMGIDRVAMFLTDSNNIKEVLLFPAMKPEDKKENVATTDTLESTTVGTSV
- assay-summary: streptavidin pull-down, WB quantification
property-name: Kd

Query :: What measured Kd goes with BRNA:DNA hybrid (BRNA 2/DNA 9) (DNA:RNA) RNA: UUUCAAUUCCUUUUAGGAUUAAUCUUGAAGAUAGAGUUAA DNA: TTAACTCTATCTTCAAGATTAATCCTAAAAGGAATTGAAA ?
Result :: ~11.3 nM
